IC50, Pim-2 (Homo sapiens (Human)), per-entry values.

Solved cases below.
{"columns": ["molecule", "measured"],
 "data": [
  ["C[C@H]1CN(c2ccncc2NC(=O)c2ccc3cc([C@@H]4C[C@H]4c4ccccc4)oc3n2)C[C@@H](N)[C@@H]1O [Example 71]", "≤ 100 nM"],
  ["C[C@@H]1C[C@H](N)C[C@H](c2ccncc2NC(=O)c2ccn3ncc(-c4c(F)cc(CO)cc4F)c3n2)C1 [Example 81]", "≤ 100 nM"],
  ["C[C@@H]1C[C@H](N)CN(c2ccncc2NC(=O)c2ccc3oc(-c4c(F)cccc4F)cc3n2)C1 [Example 4]", "> 2000 nM"]
]}

Could you tell me IC50 for each of these molecules? They are listed below.
1. C[C@H]1CN(c2ccncc2NC(=O)c2ccc3occ(C4CC4)c3n2)C[C@@H](N)[C@@H]1O [Example 34]
2. COc1ccc(-c2coc3ccc(C(=O)Nc4cnccc4N4C[C@H](C)C[C@H](N)C4)nc23)cn1 [Example 23]

Ans.
["≤ 100 nM", "1000 to 10000 nM"]
